Entry source: a melting point compilation (Tetko et al.)

Recorded melting point, one value per entry.

Previously resolved entries follow.
compound | melting point
CC(=O)N1CCc2ccc(S(=O)(=O)Cl)cc21 | 144 to 146 °C
Nc1ncc(Cc2cc(Cl)ccc2Cl)s1 | 110 to 114 °C
COc1cccc(-c2nc(C=O)cs2)c1 | 92 to 94 °C
Nc1cc(Cl)c(S(N)(=O)=O)cc1[N+](=O)[O-] | 257 to 259 °C
Nc1ccc(-c2ccccn2)cn1 | 89 to 91 °C
Nc1ccccc1CS(=O)(=O)c1ccccc1 | 172 to 174 °C
O=C(O)CC(=O)c1ccc(O)cc1 | 89 to 91 °C
COc1cccc(C(=O)NN)c1O | 144 to 146 °C

*Q* Given the compound Cc1ccc(S(=O)(=O)OC2C=CS(=O)(=O)C2)cc1 (stereo not drawn) , what is its reported melting point?
*A* 136 to 138 °C

*Q* Field request: melting point | item: `O=S(=O)(F)c1ccc2cn[nH]c2c1`
*A* 219 to 221 °C

*Q* Would you kindly share the measured melting point for CC(C)CC(C)n1nccc1N (stereo not drawn) ?
*A* 55 to 57 °C

*Q* Look at this compound and give its reported melting point. `Cc1ccc(S(=O)(=O)N2CCC(C(=O)O)CC2)cc1`
*A* 181 to 183 °C

*Q* What does the record list as melting point for `Cc1nnc(S)n1-c1ccccc1` ?
*A* 224 to 226 °C
